The reported numbers originate from patent US5840684A.

# log10(MIC) annotations
System: Staphylococcus aureus 447
protocol.notes: broth micro-dilution MIC
Type: cell-based
// units: µg/mL (pre-log); metric: MIC; scale: log10

Take a look at these entries with their results.
COc1cc(CNC2(C)CC(OC3C(Oc4c5cc6cc4Oc4ccc(cc4Cl)C(OC4CC(C)(N)C(O)C(C)O4)C4NC(=O)C(NC(=O)C6NC(=O)C(CC(N)=O)NC(=O)C(NC(=O)C(CC(C)C)N(C)Cc6ccc(OCc7ccccc7)c(OC)c6)C(O)c6ccc(c(Cl)c6)O5)c5ccc(O)c(c5)-c5c(O)cc(O)cc5C(C(=O)O)NC4=O)OC(CO)C(O)C3O)OC(C)C2O)ccc1OCc1ccccc1 (stereo not drawn) :: 0.60
CNC(CC(C)C)C(=O)NC1C(=O)NC(CC(N)=O)C(=O)NC2C(=O)NC3C(=O)NC(C(=O)NC(C(=O)O)c4cc(O)cc(O)c4-c4cc3ccc4O)C(OC3CC(C)(NCc4ccc(-c5ccc(Cl)cc5)cc4)C(O)C(C)O3)c3ccc(c(Cl)c3)Oc3cc2cc(c3OC2OC(CO)C(O)C(O)C2OC2CC(C)(NCc3ccc(-c4ccc(Cl)cc4)cc3)C(O)C(C)O2)Oc2ccc(cc2Cl)C1O.O=C(O)C(F)(F)F (stereo not drawn) :: 1.20
CNC(CC(C)C)C(=O)NC1C(=O)NC(CC(N)=O)C(=O)NC2C(=O)NC3C(=O)NC(C(=O)NC(C(=O)O)c4cc(O)cc(O)c4-c4cc3ccc4O)C(OC3CC(C)(N)C(O)C(C)O3)c3ccc(c(Cl)c3)Oc3cc2cc(c3OC2OC(CO)C(O)C(O)C2OC2CC(C)(NCc3ccc(Nc4ccccc4)cc3)C(O)C(C)O2)Oc2ccc(cc2Cl)C1O (stereo not drawn) :: 0.00
CNC(CC(C)C)C(=O)NC1C(=O)NC(CC(N)=O)C(=O)NC2C(=O)NC3C(=O)NC(C(=O)NC(C(=O)O)c4cc(O)cc(O)c4-c4cc3ccc4O)C(OC3CC(C)(N)C(O)C(C)O3)c3ccc(c(Cl)c3)Oc3cc2cc(c3OC2OC(CO)C(O)C(O)C2OC2CC(C)(NCc3ccc(Oc4ccc([N+](=O)[O-])cc4)cc3)C(O)C(C)O2)Oc2ccc(cc2Cl)C1O (stereo not drawn) :: -0.30
CNC(CC(C)C)C(=O)NC1C(=O)NC(CC(N)=O)C(=O)NC2C(=O)NC3C(=O)NC(C(=O)NC(C(=O)O)c4cc(O)cc(O)c4-c4cc3ccc4O)C(OC3CC(C)(N)C(O)C(C)O3)c3ccc(c(Cl)c3)Oc3cc2cc(c3OC2OC(CO)C(O)C(O)C2OC2CC(C)(NCc3ccc4ccccc4n3)C(O)C(C)O2)Oc2ccc(cc2Cl)C1O (stereo not drawn) :: 0.30

Ask: GET log10(MIC) where system = Staphylococcus aureus 447 and item = CNC(CC(C)C)C(=O)NC1C(=O)NC(CC(N)=O)C(=O)NC2C(=O)NC3C(=O)NC(C(=O)NC(C(=O)O)c4cc(O)cc(O)c4-c4cc3ccc4O)C(OC3CC(C)(NCc4ccc(OCCOC(C)(C)C)cc4)C(O)C(C)O3)c3ccc(c(Cl)c3)Oc3cc2cc(c3OC2OC(CO)C(O)C(O)C2OC2CC(C)(NCc3ccc(OCCOC(C)(C)C)cc3)C(O)C(C)O2)Oc2ccc(cc2Cl)C1O (stereo not drawn)
Reply: 0.30
